Listed variants paired with reported normalized RNA/DNA level with ligand (log10)
B1: library; a variant is named by its letters at N, in order (parent)
chain: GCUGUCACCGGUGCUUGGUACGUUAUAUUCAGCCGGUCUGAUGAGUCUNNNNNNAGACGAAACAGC

- Variants of: B1
- assay-details: normalized RNA/DNA level with ligand (relative to sTRSVctl = 100) (log10 (% of sTRSVctl)); HEK293T overexpressing SLC46A1; ligand concentration (+) RNA-Seq: 6 mM; higher = less ribozyme self-cleavage, higher mRNA level
- reported-conditions: with (6R,S)-folinic acid; ligand present: yes
measure: normalized RNA/DNA level with ligand (log10)

1. AUAGUU	2.01
2. CAGUUU	2.03
3. GGGUAG	2.01
4. GAACUC	2.03
5. AGUGAC	1.99
6. CCGUCG	2.02
7. UUAGCU	2.02
8. GGGUUU	2.04
9. CAUGUC	2
10. GUGAGG	2.01
11. GUUUCG	1.99
12. UGAUUG	1.96
13. UGGUGU	2.01
14. UCUAAA	2.02
15. CAGUAG	1.99
16. GCUGAA	2.03
17. GGCUGG	2.05
18. CAAAGU	2.01
19. UUCCCA	2.03
20. CCUGCG	2.03
21. AGCGCA	2.04
22. AACAUU	2.02
23. UCAGGC	2.03
24. CUUCUU	1.97
25. CGGCGA	2.09
26. UGCAUA	1.99
27. UAUGUA	1.99
28. ACCCGA	2.03
29. AUUCUU	2.04
30. GCCUCC	2.05
31. CCAGUG	2.02

Taken from the supplement of paper PMC6757056.
